# TARGET_DESC: T1, Recombinant Human DLL4 (delta-like protein 4) (human, UniProt Q9NR61 27-524)
# T1 construct: Bought recombinant protein (R&D Systems Cat#1506-D4/CF); also called rHuman DLL4; Delta-like 4
# EXPERIMENT_NOTES: ELISA, DLL4 coated on plate; Fab at 0.14 (head prints µM, text says nM)

{"BINDER": "Fab VH5-51_IGHD5-18*01>3_IGHJ4*01 G100K/G104T G24T/S28R/G35V (H:KT TRV) & V3-4_IGLJ1*01 V91L/S96P S52G (Fab, V domains shown, Tested as a Fab made in E. coli; also called H:KT TRV & L:LP S52G) VH: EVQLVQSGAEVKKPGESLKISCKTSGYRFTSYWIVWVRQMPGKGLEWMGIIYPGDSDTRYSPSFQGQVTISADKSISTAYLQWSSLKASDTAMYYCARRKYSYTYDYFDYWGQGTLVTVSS VL: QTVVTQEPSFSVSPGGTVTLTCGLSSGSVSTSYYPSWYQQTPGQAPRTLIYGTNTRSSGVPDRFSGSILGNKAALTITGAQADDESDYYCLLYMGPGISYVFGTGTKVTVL", "ELISA signal": 0.02}
{"BINDER": "Fab VH5-51_IGHD5-18*01>3_IGHJ4*01 G100K/G104T G24T/S28R/G35V (H:KT TRV) & V3-4_IGLJ1*01 (Fab, V domains shown, Tested as a Fab made in E. coli; also called H:KT TRV & L:wt; Wildtype (light chain)) VH: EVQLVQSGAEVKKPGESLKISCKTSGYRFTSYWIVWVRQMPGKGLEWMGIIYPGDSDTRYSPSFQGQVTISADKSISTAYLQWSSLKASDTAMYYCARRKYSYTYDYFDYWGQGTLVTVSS VL: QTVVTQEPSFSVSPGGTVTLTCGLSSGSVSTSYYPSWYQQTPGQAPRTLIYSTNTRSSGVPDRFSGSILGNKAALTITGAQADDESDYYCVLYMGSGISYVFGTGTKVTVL", "ELISA signal": 0}
{"BINDER": "Fab VH5-51_IGHD5-18*01>3_IGHJ4*01 G100K/G104T G24T/S28R/G35V (H:KT TRV) & V3-4_IGLJ1*01 V91L/S96P S52M (Fab, V domains shown, Tested as a Fab made in E. coli; also called H:KT TRV & L:LP S52M) VH: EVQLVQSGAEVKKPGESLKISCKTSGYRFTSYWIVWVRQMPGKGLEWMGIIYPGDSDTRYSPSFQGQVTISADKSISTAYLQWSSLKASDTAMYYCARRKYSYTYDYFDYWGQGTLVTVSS VL: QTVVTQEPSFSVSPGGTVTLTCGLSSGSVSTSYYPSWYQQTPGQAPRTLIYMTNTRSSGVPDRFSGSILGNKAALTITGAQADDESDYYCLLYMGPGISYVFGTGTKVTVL", "ELISA signal": 0.02}
{"BINDER": "Fab VH5-51_IGHD5-18*01>3_IGHJ4*01 G100K/G104T G24T/S28R/G35V (H:KT TRV) & V3-4_IGLJ1*01 V91L/S96P (L:LP) (Fab, V domains shown, Tested as a Fab made in E. coli; also called H:KT TRV & L:LP) VH: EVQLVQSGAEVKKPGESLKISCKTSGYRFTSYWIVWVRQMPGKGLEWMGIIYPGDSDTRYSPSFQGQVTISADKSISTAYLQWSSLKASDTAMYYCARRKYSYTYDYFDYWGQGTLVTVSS VL: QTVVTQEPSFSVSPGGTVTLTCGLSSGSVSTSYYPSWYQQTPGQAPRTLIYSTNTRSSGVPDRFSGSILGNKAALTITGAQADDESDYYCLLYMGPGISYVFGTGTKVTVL", "ELISA signal": 0.03}
